Listed variants paired with reported scaled log2 fold change
B1: library; numbered along this chain (parent)
chain: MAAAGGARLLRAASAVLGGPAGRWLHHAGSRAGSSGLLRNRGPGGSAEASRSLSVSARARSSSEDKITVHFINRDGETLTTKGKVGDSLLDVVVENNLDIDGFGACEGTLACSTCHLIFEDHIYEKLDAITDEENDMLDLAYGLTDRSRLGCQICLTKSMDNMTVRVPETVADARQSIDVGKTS

- Variants of: B1
- test: scaled log2 fold change in cell abundance, elesclomol vs control (0 = silent mean, 1 = nonsense mean) (scaled log2 ratio); higher = higher viability under elesclomol (loss of FDX1 cuproptosis function);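 further: variant abundance is its share of total variant reads in each endpoint sample, from next-generation sequencing of the integrated ORF PCR-amplified out of genomic DNA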
- study.conditions: with ABC1 FDX1 KO; elesclomol 5 nM; glucose 10 mM; 14 days
# answer = number (no unit)

Q: Would you mind telling me what scaled log2 fold change value was observed for `A12F` ?
Result: 0.00609

Q: Would you mind telling me what scaled log2 fold change value was observed for `G45Q` ?
Result: 0.0494

Q: Would you mind telling me what scaled log2 fold change value was observed for `V167C` ?
Result: -0.124

Q: Would you mind telling me what scaled log2 fold change value was observed for `H27Q` ?
Result: 0.286

Q: Would you mind telling me what scaled log2 fold change value was observed for `S184V` ?
Result: 0.362
